target: UniProtKB O42275
Observed property: IC50 (µM)
Reply with just the number (in µM).

Consider the reported IC50 for these compounds:
O=c1cc(/C=C\c2ccc(Cl)cc2Cl)occ1O [cis-4] ... 1000
Oc1ccccc1/C=C/c1cccs1 ... 15.7

Next, consider the following compound.
Prompt line: I'm curious: which IC50 was measured for `Oc1ccc(/C=C/c2cccs2)c(O)c1` tested on UniProtKB O42275?
Response line: 46.6

###

Measurement record for butyrylcholinesterase (BChE) (Equus caballus, UniProt P81908); quantity recorded: IC50.
API: value field is a number in µM; no unit string.

A selection of reference data follows.
Oc1ccc(/C=C/c2cccs2)c(O)c1 ... 5.3
O=c1cc(/C=C/c2ccsc2)occ1O [trans-6] ... 426
O=c1cc(/C=C\c2ccccc2C(F)(F)F)occ1O [cis-2] ... 458
Oc1ccccc1/C=C/c1cccs1 ... 4.6
O=c1cc(/C=C/c2ccccc2O)occ1O [trans-1] ... 601

Then there is this molecule:
Prompt line: Hi! What's the reported IC50 for O=c1cc(/C=C\c2ccc(Cl)cc2Cl)occ1O [cis-4] on butyrylcholinesterase (BChE) (Equus caballus, UniProt P81908)?
Response line: 638

###

Entries below carry reported IC50 on Acetylcholinesterase (AChE) (Electrophorus electricus, UniProt O42275).
Sequence (O42275 24-633): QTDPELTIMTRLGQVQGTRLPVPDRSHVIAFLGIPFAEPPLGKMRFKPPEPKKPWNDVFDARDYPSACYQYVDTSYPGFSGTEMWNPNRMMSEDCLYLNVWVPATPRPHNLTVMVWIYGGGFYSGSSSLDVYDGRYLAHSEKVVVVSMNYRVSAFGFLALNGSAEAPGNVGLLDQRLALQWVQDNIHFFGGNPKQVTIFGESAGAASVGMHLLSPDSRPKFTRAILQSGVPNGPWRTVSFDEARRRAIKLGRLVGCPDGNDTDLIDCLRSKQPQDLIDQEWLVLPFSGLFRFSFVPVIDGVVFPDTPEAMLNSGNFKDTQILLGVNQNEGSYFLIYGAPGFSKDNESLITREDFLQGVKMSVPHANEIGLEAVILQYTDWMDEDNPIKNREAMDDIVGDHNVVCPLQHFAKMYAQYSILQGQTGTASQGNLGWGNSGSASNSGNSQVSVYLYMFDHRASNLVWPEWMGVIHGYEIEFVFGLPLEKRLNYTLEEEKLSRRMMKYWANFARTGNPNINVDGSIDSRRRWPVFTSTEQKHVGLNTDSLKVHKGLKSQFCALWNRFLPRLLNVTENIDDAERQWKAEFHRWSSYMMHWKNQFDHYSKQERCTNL

O=c1cc(/C=C/c2ccccc2O)occ1O [trans-1] ... > 1000 µM
O=c1cc(/C=C\c2ccccc2C(F)(F)F)occ1O [cis-2] ... > 1000 µM

Prompt line: // lookup IC50 | system=Acetylcholinesterase (AChE) (Electrophorus electricus, UniProt O42275) | key= O=c1cc(/C=C/c2ccsc2)occ1O [trans-6]
Response line: > 1000 µM
